- testedSystem: Fuc(a1-2)Gal(b1-3)GlcNAc6S
- protocolDetails: glycan array binding signal (z-score within array); higher = stronger binding
- measurementSetup: glycan notation: IUPAC condensed, linker removed
This excerpt belongs to a sample that is enriched for the strongest signals.
attributeMeasured: glycan array binding signal (z-score)

[[record]]
binder = "Nc3LysM-2 (protein) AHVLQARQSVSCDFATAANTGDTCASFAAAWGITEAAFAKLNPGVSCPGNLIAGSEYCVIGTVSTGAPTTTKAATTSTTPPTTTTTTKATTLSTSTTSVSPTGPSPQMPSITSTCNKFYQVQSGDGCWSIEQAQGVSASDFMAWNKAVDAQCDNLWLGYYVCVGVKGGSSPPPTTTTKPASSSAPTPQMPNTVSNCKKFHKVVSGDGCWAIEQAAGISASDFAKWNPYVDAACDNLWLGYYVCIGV"
valuemeasured = -1.29

[[record]]
binder = "Morniga (Morus nigra) (protein) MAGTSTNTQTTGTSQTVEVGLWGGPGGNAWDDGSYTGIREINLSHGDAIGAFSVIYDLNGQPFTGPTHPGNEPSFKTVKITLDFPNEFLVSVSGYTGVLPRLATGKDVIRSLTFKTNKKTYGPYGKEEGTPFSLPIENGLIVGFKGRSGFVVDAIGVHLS"
valuemeasured = -0.321

[[record]]
binder = "MGL (Homo sapiens), Q8IUN9 (protein) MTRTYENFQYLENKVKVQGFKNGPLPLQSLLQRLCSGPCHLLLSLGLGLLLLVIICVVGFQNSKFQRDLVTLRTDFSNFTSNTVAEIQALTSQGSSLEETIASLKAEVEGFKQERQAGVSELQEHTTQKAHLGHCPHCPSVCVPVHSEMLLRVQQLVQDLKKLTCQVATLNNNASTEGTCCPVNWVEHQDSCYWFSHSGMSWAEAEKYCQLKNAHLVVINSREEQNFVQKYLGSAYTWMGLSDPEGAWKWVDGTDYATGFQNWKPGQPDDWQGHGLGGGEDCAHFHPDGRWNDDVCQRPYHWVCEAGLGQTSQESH"
valuemeasured = -0.178

[[record]]
binder = "CML1 (Coprinopsis cinerea) (protein) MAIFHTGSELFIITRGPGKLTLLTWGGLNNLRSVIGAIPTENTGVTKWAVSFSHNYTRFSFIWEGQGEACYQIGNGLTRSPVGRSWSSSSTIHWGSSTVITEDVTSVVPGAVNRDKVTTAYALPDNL"
valuemeasured = 4.12

